assay: Viability qHTS for spleen associated tyrosine kinase inhibitor (SYKi) drug resistant MV4-11 cells (AID 1963824); settings: SYKi-resistant MV4-11 viability, CellTiter-Glo, 72 h; series mostly up to 45 µM; note: nearly all actives have a fitted effect of over 35% in size
Inconclusive results are not listed. Activity calls are given as the source filed them. Calls come from the whole dose curve; as a rule, active = well fitted cell-killing curve with a large enough effect; inconclusive = small, poorly fitted or top-dose-only effect, or effect the other way; inactive = no such curve, though single readings can be large or run the other way.
Outcomes: YES (active), NO (inactive)

{"MOLECULE": "O=C(Nc1ccn(Cc2ccc(O)cc2C(F)(F)F)n1)c1c(F)cccc1F", "CLASS": "YES"}
{"MOLECULE": "C[C@H]1O[C@@H](O[C@H]2CC[C@@]3(C)C(CC[C@]4(C)C3CC=C3C5CC(C)(C)CC[C@]5(C(=O)O)CC[C@]34C(=O)O)C2(C)C)[C@H](O)[C@@H](O)[C@@H]1O (some centres undefined)", "CLASS": "NO"}
{"MOLECULE": "O=C(Nc1cc(Cl)cc2c1[nH]c1cnccc12)c1cccnc1", "CLASS": "YES"}
{"MOLECULE": "CCCCc1ccc(NS(=O)(=O)c2ccc(C)c(C(=O)N3CCN(c4cccc(C)c4C)CC3)c2)cc1", "CLASS": "YES"}

---

assay: Quantitative highthroughput screen to assess conditional lethalithy of NOMO1 cells grown in RPMI1640 with untreated serum (RPMI+s) (AID 1963876); conditions: NOMO1 AML cells in RPMI+serum, CellTiter-Glo viability, 48 h; series mostly up to 45.8 µM; note: nearly all actives have a fitted effect of over 35% in size;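 for viability: 100% = DMSO wells and 0% = empty wells without cells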
Inconclusive results are not listed. Calls of active or inactive are those of the source. The call rests on the fitted dose curve; in most records, active means well fitted cell-killing curve with a large enough effect; inconclusive means small, poorly fitted or top-dose-only effect; inactive means flat fitted curve, though single readings scatter.
Outcomes: 1 (active), 0 (inactive)

{"COMPOUND": "COc1ccc(-c2oc3c(CC=C(C)C)c(O)cc(O)c3c(=O)c2O)cc1", "CLASS": 0}
{"COMPOUND": "CCC(C)n1ncn(-c2ccc(N3CCN(c4ccc(OC[C@H]5CO[C@](Cn6cncn6)(c6ccc(Cl)cc6Cl)O5)cc4)CC3)cc2)c1=O (some centres undefined)", "CLASS": 0}
{"COMPOUND": "COC(=O)N1CC2(CC2)C[C@H](C(=O)NO)[C@H]1C(=O)N1CCN(c2ccccc2)CC1", "CLASS": 1}
{"COMPOUND": "CCc1c2c(nc3ccc(OC(=O)N4CCC(N5CCCCC5)CC4)cc13)-c1cc3c(c(=O)n1C2)COC(=O)[C@]3(O)CC", "CLASS": 1}
{"COMPOUND": "C[C@H]1Oc2cc(cnc2N)-c2c(nn(C)c2C#N)CN(C)C(=O)c2ccc(F)cc21", "CLASS": 0}
{"COMPOUND": "Cc1cccc(-c2nn(C(=S)Nc3ccccc3)cc2-c2ccnc3ccccc23)n1", "CLASS": 0}
{"COMPOUND": "CC(C)(CO)[C@@H](O)C(=O)NCCC(=O)O", "CLASS": 0}
{"COMPOUND": "c1cc(N[C@@H]2CCNC2)nc(-c2cnc3ccc(-c4cn[nH]c4)cn23)c1", "CLASS": 0}
{"COMPOUND": "CC(S)C(=O)NCC(=O)O (centres undefined)", "CLASS": 0}

---

assay: Quantitative highthroughput screen to assess conditional lethalithy of NOMO1 cells grown in RPMI1640 with untreated serum (RPMI+s) (AID 1963876); conditions: NOMO1 AML cells in RPMI+serum, CellTiter-Glo viability, 48 h; series mostly up to 45.8 µM; note: nearly all actives have a fitted effect of over 35% in size; note: potency is the fitted concentration of half-maximal effect;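 for viability: 100% = DMSO wells and 0% = empty wells without cells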
Records with an inconclusive call do not appear. Activity calls are given as the source filed them. The call rests on the fitted dose curve; in most records, active means well fitted cell-killing curve with a large enough effect; inconclusive means small, poorly fitted or top-dose-only effect; inactive means flat fitted curve, though single readings scatter.

{"COMPOUND": "CCC(=O)NCC[C@@H]1CCc2ccc3c(c21)CCO3", "Potency": "inactive"}
{"COMPOUND": "CCOC(=O)c1ccc(C#Cc2ccc3c(c2)C(C)(C)CCS3)nc1", "Potency": "inactive"}
{"COMPOUND": "Oc1cccc(-c2nc(N3CCOCC3)c3oc4ncccc4c3n2)c1", "Potency": "inactive"}
{"COMPOUND": "COc1ccc(-c2c(-c3ccc(O)cc3O)n[nH]c2C)cc1", "Potency": "inactive"}
{"COMPOUND": "C1COC(NC(C2CC2)C2CC2)=N1", "Potency": "inactive"}
{"COMPOUND": "Cc1[nH]c2ccccc2c1CCNCc1ccc(C=CC(=O)NO)cc1", "Potency": "0.743 µM (active)"}
{"COMPOUND": "O=C(O)c1ccc2c(c1)nc(Nc1cccc(Cl)c1)c1ccncc12", "Potency": "5.9 µM (active)"}
{"COMPOUND": "Nc1nnc(-c2cccc(Cl)c2Cl)c(N)n1", "Potency": "inactive"}
{"COMPOUND": "O=C(O)c1ccc(-c2cc3cccnc3c(-c3ccc4nonc4c3)n2)cc1", "Potency": "inactive"}
{"COMPOUND": "COc1ccc2c(c1OC)C(=O)OC2[C@H]1c2c(cc3c(c2OC)OCO3)CCN1C (some centres not stated)", "Potency": "0.296 µM (active)"}
{"COMPOUND": "Clc1ccc(C(c2ccccc2Cl)C(Cl)Cl)cc1 (configuration not stated)", "Potency": "inactive"}
{"COMPOUND": "CCN1C[C@H](C)n2c(c(O)c3c(=O)n(Cc4ccc(F)c(Cl)c4)nc(C(=O)NC)c32)C1=O", "Potency": "23.5 µM (active)"}
{"COMPOUND": "C=CC(=O)Nc1cc2c(Nc3ccc(F)c(Cl)c3)ncnc2cc1C#CC(C)(C)N1CCN(C)CC1", "Potency": "9.35 µM (active)"}
{"COMPOUND": "CC(C)C[C@H](NC(=O)[C@H](Cc1ccccc1)NC(=O)c1cnccn1)B(O)O", "Potency": "0.0469 µM (active)"}
{"COMPOUND": "COC(=O)[C@H](c1ccccc1Cl)N1CCc2sccc2C1", "Potency": "1.05 µM (active)"}
{"COMPOUND": "C=Cc1c(C)c2cc3nc(cc4[nH]c(cc5nc(cc1[nH]2)C(C)=C5CCC(=O)O)c(CCC(=O)OC)c4C)[C@@]1(C)C3=CC=C(C(=O)OC)[C@H]1C(=O)OC", "Potency": "14.8 µM (active)"}
{"COMPOUND": "CCOC(=O)[C@H](CCc1ccccc1)N[C@H]1CS[C@H](c2cccs2)CN(CC(=O)O)C1=O", "Potency": "10.5 µM (active)"}
{"COMPOUND": "NC(CO)C(=O)NNCc1ccc(O)c(O)c1O (configuration not stated)", "Potency": "inactive"}
{"COMPOUND": "O=C(O)CCCCCC(=O)NN=C1CCCC1", "Potency": "inactive"}
{"COMPOUND": "NCCS(=O)(=O)O", "Potency": "inactive"}
{"COMPOUND": "CCc1ccc(C=C2SC(=S)NC2=O)cc1", "Potency": "inactive"}
{"COMPOUND": "Cc1csc(NC(=O)c2sc3nc4c(c(C(F)(F)F)c3c2N)CCC4)n1", "Potency": "inactive"}
